Molecular target: T1, biotinylated Compound 1 (biotinylated CCR4 partial peptide) (human, also: biotinylated, site not given here)
T1 construct: Same peptide as in BSA-Compound 1
T1 peptide: DESIYSNYYLYESIPKPC
Test: BIAcore 2000, biotinylated Compound 1 on sensor tip SA, antibody at 4 µg/ml
Procedure: In order to measure the binding activity in more detail, the binding activity of various purified antibodies was measured using BIAcore 2000 (manufactured by BIACORE) as follows. In this case, HBS-EP (manufactured by BIACORE) was used as the buffer for diluting samples and for the measurement. First, 5 μl of 0.05 μg/ml solution of Compound 1 as a biotinylated CCR4 partial peptide was added to a sensor tip SA (manufactured by BIACORE) at a flow rate of 5 μl/minute and immobilized on the sensor tip. […]
Ends that are not written are not given here.
Metric Name: binding result

| Binder | Reported Result |
| --- | --- |
| anti-CCR4 CDR-grafted antibody Ga10LV0 (antibody, human IgG1, V domains shown, CDR alone grafted; Tested as COS-7 supernatant and as purified antibody from YB2/0; also called pKANTEX2160Ga10LV0; pKM2160Ga10LV0) VH: EVQLVESGGDLVQPGRSLRLSCAASGFIFSNYGMSWVRQAPGKGLEWVATISSASTYSYYPDSVKGRFTISRDNAKNSLYLQMNSLRVEDTALYYCARHSDGNFAFGYWGQGTLVTVSS VL: DIVMTQSPLSLPVTPGEPASISCRSSRNIVHINGDTYLEWYLQKPGQSPQLLIYKVSNRFSGVPDRFSGSGSGTDFTLKISRVEAEDVGVYYCFQGSLLPWTFGQGTKVEIK | binds |
| anti-CCR4 CDR-grafted antibody Ga10LV1 (antibody, human IgG1, V domains shown, Tested as COS-7 supernatant and as purified antibody from YB2/0; also called pKM2160Ga10LV1) VH: EVQLVESGGDLVQPGRSLRLSCAASGFIFSNYGMSWVRQAPGKGLEWVATISSASTYSYYPDSVKGRFTISRDNAKNSLYLQMNSLRVEDTALYYCARHSDGNFAFGYWGQGTLVTVSS VL: DVVMTQSPLSLPVTPGEPASISCRSSRNIVHINGDTYLEWYLQKPGQSPQLLIYKVSNRFSGVPDRFSGSGSGTDFTLKISRVEAEDVGVYYCFQGSLLPWTFGQGTKVEIK | binds |
